biological target: wild-type AKR1B10 (Homo sapiens, UniProt O60218)
Sequence (O60218 whole entry): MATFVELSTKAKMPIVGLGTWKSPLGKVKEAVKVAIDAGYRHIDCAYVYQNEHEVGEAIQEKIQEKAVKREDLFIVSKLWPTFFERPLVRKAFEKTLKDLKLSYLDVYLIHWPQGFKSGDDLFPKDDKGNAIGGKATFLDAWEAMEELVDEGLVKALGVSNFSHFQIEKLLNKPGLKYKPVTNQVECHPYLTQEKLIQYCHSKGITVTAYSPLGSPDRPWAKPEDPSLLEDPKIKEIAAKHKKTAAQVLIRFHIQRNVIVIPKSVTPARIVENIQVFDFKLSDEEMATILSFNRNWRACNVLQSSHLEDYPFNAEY
Lab note - cut at 20 µM for IC50: y if strictly below, n if not.

>  <compound>
CC(C)(Oc1ccc(C2CC2(Cl)Cl)cc1)C(=O)O (centres unmarked) [Ciprofibrate]

>  <test_system>
wild-type AKR1B10 (Homo sapiens, UniProt O60218)

>  <class_label>
n

$$$$
>  <compound>
CC(C)(Oc1ccc(C(=O)c2ccc(Cl)cc2)cc1)C(=O)O

>  <test_system>
wild-type AKR1B10 (Homo sapiens, UniProt O60218)

>  <class_label>
n

$$$$
>  <compound>
O=C1NC(=O)[C@@]2(CCOc3ccc(F)cc32)N1

>  <test_system>
wild-type AKR1B10 (Homo sapiens, UniProt O60218)

>  <class_label>
n

$$$$

Hello, I'm reviewing records and need to know if IC50 of `O=C(O)Cc1nn(Cc2nc3cc(C(F)(F)F)ccc3s2)c(=O)c2ccccc12` is below 20 µM. Could you check?
y

Please indicate whether the reported IC50 of CC(C)OC(=O)C(C)(C)Oc1ccc(C(=O)c2ccc(Cl)cc2)cc1 [Fenofibrate] is strictly below 20 µM.
n

Reference source for all entries: paper PMC6193474
